# TESTED SYSTEM: mouse TMEM16A mutant V543A (Mus musculus, UniProt Q8BHY3, V543A)
# Construct: expressed in transfected cells; host or cells: HEK293T
# METHOD DESCRIPTION: Inside-out patch recording of 1PBC block, mutant V543A
# Assay type: cell-based
# MEASUREMENT SETUP: V543A; V -20 mV
PROPERTY LABEL: IC50 (µM)
State the answer as a number, implicitly in µM.

Request the reported IC50 associated with N#Cc1c(C(F)(F)F)cc(O)n2c1nc1ccccc12 [1PBC]
13.1

----------
# TESTED SYSTEM: mouse TMEM16A mutant P595A (Mus musculus, UniProt Q8BHY3, P595A)
# Construct: expressed in transfected cells; host or cells: HEK293T
# METHOD DESCRIPTION: Inside-out patch recording of 1PBC block, mutant P595A
# Type: cell-based
# MEASUREMENT SETUP: -60 mV; 2 µM Ca2+
PROPERTY LABEL: pIC50
Interpret pIC50 as the negative base-10 log of the concentration measured in mol/L.

Which pIC50 is reported for this molecule? N#Cc1c(C(F)(F)F)cc(O)n2c1nc1ccccc12
5.23

----------
# TESTED SYSTEM: mouse TMEM16A mutant R535A (Mus musculus, UniProt Q8BHY3, R535A)
# Construct: expressed in transfected cells; host or cells: HEK293T
# METHOD DESCRIPTION: Inside-out patch recording of 1PBC block, mutant R535A
# Type: cell-based
# MEASUREMENT SETUP: R535A; V 100 mV
PROPERTY LABEL: pIC50
Bear in mind: pIC50 is minus log10 of a mol/L concentration; give just that figure.

Please give the measured pIC50 for this compound: N#Cc1c(C(F)(F)F)cc(O)n2c1nc1ccccc12
5.26

----------
# TESTED SYSTEM: mouse TMEM16A mutant R535A (Mus musculus, UniProt Q8BHY3, R535A)
# Construct: expressed in transfected cells; host or cells: HEK293T
# METHOD DESCRIPTION: Inside-out patch recording of 1PBC block, mutant R535A
# Assay type: cell-based
# MEASUREMENT SETUP: R535A; V 20 mV
PROPERTY LABEL: IC50 (µM)
Entry rule: numbers only, all in µM.

Item N#Cc1c(C(F)(F)F)cc(O)n2c1nc1ccccc12 has what recorded IC50?
9.48

----------
# TESTED SYSTEM: mouse TMEM16A mutant N546A (Mus musculus, UniProt Q8BHY3, N546A)
# Construct: expressed in transfected cells; host or cells: HEK293T
# METHOD DESCRIPTION: Inside-out patch recording of 1PBC block, mutant N546A
# Format: cell-based
# MEASUREMENT SETUP: N546A; V 0 mV
PROPERTY LABEL: pIC50
# pIC50 = -log10(concentration in molar units)

What value of pIC50 has been recorded for this entry: N#Cc1c(C(F)(F)F)cc(O)n2c1nc1ccccc12 [1PBC]
6.23

----------
# TESTED SYSTEM: mouse TMEM16A mutant R535A (Mus musculus, UniProt Q8BHY3, R535A)
# Construct: expressed in transfected cells; host or cells: HEK293T
# METHOD DESCRIPTION: Inside-out patch recording of 1PBC block, mutant R535A
# Format: cell-based
# MEASUREMENT SETUP: R535A; V 0 mV
PROPERTY LABEL: IC50

Consider the compound N#Cc1c(C(F)(F)F)cc(O)n2c1nc1ccccc12 and give its measured IC50.
11.9 µM

----------
# TESTED SYSTEM: mouse TMEM16A mutant S517A (Mus musculus, UniProt Q8BHY3, S517A)
# Construct: expressed in transfected cells; host or cells: HEK293T
# Sequence (Q8BHY3 1-960 S517A): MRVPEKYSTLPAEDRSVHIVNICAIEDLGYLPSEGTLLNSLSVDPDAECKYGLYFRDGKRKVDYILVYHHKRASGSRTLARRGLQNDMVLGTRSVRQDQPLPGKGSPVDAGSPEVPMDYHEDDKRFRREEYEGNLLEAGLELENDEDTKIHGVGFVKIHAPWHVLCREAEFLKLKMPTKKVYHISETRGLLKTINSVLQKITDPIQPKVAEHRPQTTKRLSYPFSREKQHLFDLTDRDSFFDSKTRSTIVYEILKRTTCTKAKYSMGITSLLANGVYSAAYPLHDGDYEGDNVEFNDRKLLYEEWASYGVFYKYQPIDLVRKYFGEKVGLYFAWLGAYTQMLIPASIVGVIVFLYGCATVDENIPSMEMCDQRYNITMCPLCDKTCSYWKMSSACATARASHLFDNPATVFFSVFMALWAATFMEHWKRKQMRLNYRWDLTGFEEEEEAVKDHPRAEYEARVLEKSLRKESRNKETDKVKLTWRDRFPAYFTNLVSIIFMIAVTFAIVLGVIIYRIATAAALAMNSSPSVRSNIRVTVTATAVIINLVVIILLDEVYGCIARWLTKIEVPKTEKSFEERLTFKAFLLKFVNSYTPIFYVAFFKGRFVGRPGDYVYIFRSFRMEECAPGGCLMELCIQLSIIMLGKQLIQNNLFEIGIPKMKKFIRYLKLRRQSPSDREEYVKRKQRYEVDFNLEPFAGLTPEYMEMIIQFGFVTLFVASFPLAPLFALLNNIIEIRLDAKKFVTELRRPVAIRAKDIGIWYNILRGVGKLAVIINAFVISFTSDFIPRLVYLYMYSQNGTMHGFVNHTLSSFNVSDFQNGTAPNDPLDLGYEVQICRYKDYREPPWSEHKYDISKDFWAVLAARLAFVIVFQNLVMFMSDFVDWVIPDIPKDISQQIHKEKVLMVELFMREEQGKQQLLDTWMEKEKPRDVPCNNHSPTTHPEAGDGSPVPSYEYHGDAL
# METHOD DESCRIPTION: Inside-out patch recording of 1PBC block, mutant S517A
# Format: cell-based
# MEASUREMENT SETUP: S517A; V -120 mV
# Experimental: HEK293T cells (ATCC CRL-1573) were maintained in Dulbecco’s modified Eagle’s medium (DMEM; Sigma-Aldrich) supplemented with 10 U ml^−1 penicillin, 0.1 mg ml^−1 streptomycin (Sigma-Aldrich), 2 mM L-glutamine (Sigma-Aldrich), and 10% FBS (Sigma-Aldrich) in a humidified atmosphere containing 5% CO2 at 37 °C. […]
PROPERTY LABEL: pIC50
# log scale: pIC50 equals minus log10 of the concentration in mol/L

Need pIC50, item N#Cc1c(C(F)(F)F)cc(O)n2c1nc1ccccc12 [1PBC]
4.73

----------
# TESTED SYSTEM: mouse TMEM16A mutant R515A (Mus musculus, UniProt Q8BHY3, R515A)
# Construct: expressed in transfected cells; host or cells: HEK293T
# Sequence (Q8BHY3 1-960 R515A): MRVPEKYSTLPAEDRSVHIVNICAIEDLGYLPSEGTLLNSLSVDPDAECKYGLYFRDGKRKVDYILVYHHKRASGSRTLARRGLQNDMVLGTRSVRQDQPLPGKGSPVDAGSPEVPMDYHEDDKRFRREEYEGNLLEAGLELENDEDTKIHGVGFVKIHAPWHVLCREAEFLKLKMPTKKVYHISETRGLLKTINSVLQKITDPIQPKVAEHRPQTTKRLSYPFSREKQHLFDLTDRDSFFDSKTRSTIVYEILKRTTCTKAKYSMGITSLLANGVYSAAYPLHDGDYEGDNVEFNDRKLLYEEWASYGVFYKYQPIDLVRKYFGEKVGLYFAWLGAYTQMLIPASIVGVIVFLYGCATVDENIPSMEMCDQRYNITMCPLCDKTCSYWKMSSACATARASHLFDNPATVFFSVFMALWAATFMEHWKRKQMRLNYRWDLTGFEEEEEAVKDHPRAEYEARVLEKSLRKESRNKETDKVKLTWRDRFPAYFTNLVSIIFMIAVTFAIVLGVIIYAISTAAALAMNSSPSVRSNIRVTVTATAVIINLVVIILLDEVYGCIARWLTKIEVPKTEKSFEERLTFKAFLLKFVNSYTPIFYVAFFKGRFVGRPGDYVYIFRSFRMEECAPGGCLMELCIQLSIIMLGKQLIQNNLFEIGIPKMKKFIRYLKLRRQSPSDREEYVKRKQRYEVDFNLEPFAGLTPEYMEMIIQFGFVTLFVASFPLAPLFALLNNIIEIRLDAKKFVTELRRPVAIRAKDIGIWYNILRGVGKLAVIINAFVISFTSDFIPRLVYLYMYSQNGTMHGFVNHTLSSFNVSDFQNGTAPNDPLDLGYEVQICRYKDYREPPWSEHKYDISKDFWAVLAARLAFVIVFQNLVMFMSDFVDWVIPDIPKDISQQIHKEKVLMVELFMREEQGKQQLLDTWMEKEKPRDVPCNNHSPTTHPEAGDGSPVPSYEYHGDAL
# METHOD DESCRIPTION: Inside-out patch recording of 1PBC block, mutant R515A
# Assay type: cell-based
# MEASUREMENT SETUP: -100 mV; 4 µM Ca2+
PROPERTY LABEL: pIC50
# reply with the number alone; pIC50 is -log10 of concentration in mol/L

Reported pIC50, molecule N#Cc1c(C(F)(F)F)cc(O)n2c1nc1ccccc12 : ____
3.77
